// provenance: ChEMBL document CHEMBL2086314

Exercise: state measured Activity for each of the molecules provided.
System: Mus musculus
TEST_SUMMARY: Anticonvulsant activity in CF-1 albino mouse assessed as protection against 6 Hz psychomotor seizure at 100 mg/kg, ip measured after 4 hrs
Type: functional
TEST_PARAMETERS: route intraperitoneal
Output spec: scalar in %, unitless text.

**Query** Quick one: Activity of O=C1CC(c2ccccc2Br)C(=O)N1CN1CCN(c2ccccc2)CC1 (racemic) ?
**Result** 50

**Query** Quick one: Activity of O=C1CC(c2ccccc2Br)C(=O)N1CN1CCN(c2ccccc2F)CC1 (racemic) ?
**Result** 25

**Query** Quick one: Activity of Cl.Cl.O=C1CC(c2ccccc2F)C(=O)N1CN1CCN(CCO)CC1 (racemic) ?
**Result** 0

**Query** Quick one: Activity of O=C1CC(c2ccccc2F)C(=O)N1CN1CCN(c2cccc(C(F)(F)F)c2)CC1 (racemic) ?
**Result** 25

**Query** Quick one: Activity of O=C1CC(c2ccccc2F)C(=O)N1CN1CCN(c2ccc(Cl)cc2)CC1 (racemic) ?
**Result** 0

**Query** Quick one: Activity of O=C1CC(c2ccccc2F)C(=O)N1CN1CCOCC1 (racemic) ?
**Result** 25

**Query** Quick one: Activity of O=C1CC(c2ccccc2F)C(=O)N1CN1CCN(Cc2ccccc2)CC1 (racemic) ?
**Result** 0

---

Exercise: state measured Activity for each of the compounds provided.
System: Mus musculus
TEST_SUMMARY: Anticonvulsant activity in CF-1 albino mouse assessed as protection against 6 Hz psychomotor seizure at 100 mg/kg, ip measured after 0.5 hrs
Assay type: functional
TEST_PARAMETERS: route intraperitoneal
Output spec: scalar in %, unitless text.

**Query** Quick one: Activity of O=C1CC(c2ccccc2F)C(=O)N1CN1CCN(c2ccc(Cl)cc2)CC1 (racemic) ?
**Result** 50

**Query** Quick one: Activity of O=C1CC(c2ccccc2F)C(=O)N1CN1CCN(c2cccc(C(F)(F)F)c2)CC1 (racemic) ?
**Result** 75

**Query** Quick one: Activity of O=C1CC(c2ccccc2F)C(=O)N1CN1CCN(Cc2ccccc2)CC1 (racemic) ?
**Result** 25

**Query** Quick one: Activity of O=C1CC(c2ccccc2Br)C(=O)N1CN1CCN(c2ccccc2)CC1 (racemic) ?
**Result** 0

**Query** Quick one: Activity of Cl.Cl.O=C1CC(c2ccccc2F)C(=O)N1CN1CCN(CCO)CC1 (racemic) ?
**Result** 25

**Query** Quick one: Activity of O=C1CC(c2ccccc2Br)C(=O)N1CN1CCN(c2ccccc2F)CC1 (racemic) ?
**Result** 25

**Query** Quick one: Activity of O=C1CC(c2ccccc2F)C(=O)N1CN1CCOCC1 (racemic) ?
**Result** 100
